// reported pKi for each item listed
biological target: human D2 receptor (Homo sapiens (Human), UniProt P14416); test: Radioligand binding ([3H]-spiperone) to cloned receptors expressed in HEK-293 EBNA cells; conditions: HEK293 EBNA cell membranes expressing human D2
Sequence (P14416 whole entry): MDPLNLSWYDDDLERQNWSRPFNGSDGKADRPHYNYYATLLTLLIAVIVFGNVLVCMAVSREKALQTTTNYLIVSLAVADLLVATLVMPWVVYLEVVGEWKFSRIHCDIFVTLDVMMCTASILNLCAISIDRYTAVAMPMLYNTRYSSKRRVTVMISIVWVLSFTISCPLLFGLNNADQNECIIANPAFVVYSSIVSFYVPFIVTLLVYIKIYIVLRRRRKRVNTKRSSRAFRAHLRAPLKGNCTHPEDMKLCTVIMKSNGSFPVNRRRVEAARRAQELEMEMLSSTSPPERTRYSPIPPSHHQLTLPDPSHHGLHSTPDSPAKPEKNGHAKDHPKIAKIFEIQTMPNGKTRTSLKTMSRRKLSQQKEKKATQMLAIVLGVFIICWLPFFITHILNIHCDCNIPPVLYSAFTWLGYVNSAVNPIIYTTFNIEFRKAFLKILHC
pKi: −log10 of the molar value.
measured-endpoint: pKi

{"columns": ["compound", "measured"],
 "data": [
  ["O=C(N[C@H]1CC[C@H](CCN2CCC(c3cccc4c3CCO4)CC2)CC1)c1ccc(-c2cccnc2)cc1 [Example 92]", 7.00],
  ["O=C(N[C@H]1CC[C@H](CCN2CCC(c3cccc4c3CCO4)CC2)CC1)c1ccc(-n2cccn2)cc1 [Example 68]", 5.77],
  ["COCC(=O)N[C@H]1CC[C@H](CCN2CCC(c3cccc4occc34)CC2)CC1 [Example 10]", 6.59],
  ["N#Cc1ccc(C(=O)N[C@H]2CC[C@H](CCN3CCC(c4cccc5c4CCO5)CC3)CC2)cc1 [Example 45]", 6.72],
  ["O=C(N[C@H]1CC[C@H](CCN2CCC(c3cccc4c3CCO4)CC2)CC1)C(F)(F)F [Example 43]", 6.54],
  ["COCCC(=O)N[C@H]1CC[C@H](CCN2CCC(c3cccc4occc34)CC2)CC1 [Example 2]", 6.54],
  ["O=S(=O)(N[C@H]1CC[C@H](CCN2CCC(c3cccc4c3CCO4)CC2)CC1)c1ccccc1 [Example 49]", 6.86],
  ["CN(C)C(=O)N[C@H]1CC[C@H](CCN2CCC(c3cccc4c3CCO4)CC2)CC1 [Example 83]", 7.16]
]}

---

Measurement record for human 5-HT2A receptor (Homo sapiens (Human)); quantity recorded: Ki.
measured-endpoint: Ki

{"columns": ["compound", "tested-system", "measured-endpoint", "measured"],
 "data": [
  ["O=C(N[C@H]1CC[C@H](CCN2CCC(c3cccc4c3CCO4)CC2)CC1)c1ccc(-c2ccccc2)cc1 [Example 91]", "human 5-HT2A receptor (Homo sapiens (Human))", "Ki", "28.1 nM"],
  ["CCCC(=O)N[C@H]1CC[C@H](CCN2CCC(c3cccc4c3CCO4)CC2)CC1 [Example 73]", "human 5-HT2A receptor (Homo sapiens (Human))", "Ki", "93.4 nM"],
  ["COCCC(=O)N[C@H]1CC[C@H](CCN2CCC(c3ccc(F)c4occc34)CC2)CC1 [Example 67]", "human 5-HT2A receptor (Homo sapiens (Human))", "Ki", "31 nM"],
  ["CS(=O)(=O)c1ccc(C(=O)N[C@H]2CC[C@H](CCN3CCC(c4cccc5c4CCO5)CC3)CC2)s1 [Example 70]", "human 5-HT2A receptor (Homo sapiens (Human))", "Ki", "31.4 nM"],
  ["O=C(N[C@H]1CC[C@H](CCN2CCC(c3cccc4c3CCO4)CC2)CC1)C1CC1 [Example 29]", "human 5-HT2A receptor (Homo sapiens (Human))", "Ki", "23.6 nM"],
  ["O=C(N[C@H]1CC[C@H](CCN2CCC(c3cccc4c3CCO4)CC2)CC1)c1ccc2c(c1)OCO2 [Example 79]", "human 5-HT2A receptor (Homo sapiens (Human))", "Ki", "23 nM"],
  ["CS(=O)(=O)CC(=O)N[C@H]1CC[C@H](CCN2CCC(c3cccc4c3CCO4)CC2)CC1 [Example 15]", "human 5-HT2A receptor (Homo sapiens (Human))", "Ki", "35.9 nM"],
  ["O=S(=O)(N[C@H]1CC[C@H](CCN2CCC(c3cccc4c3CCO4)CC2)CC1)c1ccc(F)cc1 [Example 50]", "human 5-HT2A receptor (Homo sapiens (Human))", "Ki", "86.8 nM"]
]}

---

// reported pKi for each item listed
molecular target: human 5-HT2A receptor (Homo sapiens (Human), UniProt P28223)
Sequence (P28223 whole entry): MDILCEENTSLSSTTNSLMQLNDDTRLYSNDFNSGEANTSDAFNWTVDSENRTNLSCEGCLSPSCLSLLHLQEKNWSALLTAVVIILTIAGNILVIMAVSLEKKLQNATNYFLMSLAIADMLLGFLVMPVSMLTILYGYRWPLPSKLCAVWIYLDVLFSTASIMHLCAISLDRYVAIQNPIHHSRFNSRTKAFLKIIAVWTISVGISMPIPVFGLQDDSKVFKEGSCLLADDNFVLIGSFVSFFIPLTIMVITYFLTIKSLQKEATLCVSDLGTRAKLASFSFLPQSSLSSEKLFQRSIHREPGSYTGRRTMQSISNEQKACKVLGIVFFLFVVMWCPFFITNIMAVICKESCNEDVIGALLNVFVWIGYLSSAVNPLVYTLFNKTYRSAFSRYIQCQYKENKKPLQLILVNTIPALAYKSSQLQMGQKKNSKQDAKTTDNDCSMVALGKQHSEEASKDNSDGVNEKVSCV
pKi: −log10 of the molar value.

{"columns": ["mol", "pKi"],
 "data": [
  ["CC(C)CCC(=O)N[C@H]1CC[C@H](CCN2CCC(c3cccc4c3CCO4)CC2)CC1", 7.14],
  ["CCC(=O)N[C@H]1CC[C@H](CCN2CCC(c3cccc4c3CCO4)CC2)CC1", 7.46],
  ["COC(CC(=O)N[C@H]1CC[C@H](CCN2CCC(c3cccc4c3CCO4)CC2)CC1)OC", 7.16]
]}

---

// reported Ki for each item listed
target: human D2 receptor (Homo sapiens (Human)); test: Radioligand binding ([3H]-spiperone) to cloned receptors expressed in HEK-293 EBNA cells; conditions: HEK293 EBNA cell membranes expressing human D2

{"columns": ["compound", "units", "Ki"],
 "data": [
  ["CC#CC(=O)N[C@H]1CC[C@H](CCN2CCC(c3cccc4c3CCO4)CC2)CC1 [Example 86]", "nM", 118],
  ["O=C(N[C@H]1CC[C@H](CCN2CCC(c3cccc4c3CCO4)CC2)CC1)c1ccc(N2CCOCC2)cc1 [Example 33]", "nM", 128],
  ["CC(C)=CC(=O)N[C@H]1CC[C@H](CCN2CCC(c3cccc4c3CCO4)CC2)CC1 [Example 84]", "nM", 73.9],
  ["CN(C)C(=O)CCC(=O)N[C@H]1CC[C@H](CCN2CCC(c3cccc4c3CCO4)CC2)CC1 [Example 63]", "nM", 1060],
  ["CC(C)(O)CC(=O)N[C@H]1CC[C@H](CCN2CCC(c3cccc4c3CCO4)CC2)CC1 [Example 72]", "nM", 176],
  ["O=C(N[C@H]1CC[C@H](CCN2CCC(c3cccc4c3CCO4)CC2)CC1)c1ccc(F)cc1 [Example 35]", "nM", 73.7],
  ["C/C=C/CC(=O)N[C@H]1CC[C@H](CCN2CCC(c3cccc4c3CCO4)CC2)CC1 [Example 85]", "nM", 438],
  ["O=C(CC1CCOCC1)N[C@H]1CC[C@H](CCN2CCC(c3cccc4occc34)CC2)CC1 [Example 4]", "nM", 219],
  ["N#CCC(=O)N[C@H]1CC[C@H](CCN2CCC(c3cccc4c3CCO4)CC2)CC1 [Example 55]", "nM", 140],
  ["CC(C)CC(=O)N[C@H]1CC[C@H](CCN2CCC(c3cccc4c3CCO4)CC2)CC1 [Example 24]", "nM", 213],
  ["O=C(N[C@H]1CC[C@H](CCN2CCC(c3cccc4c3CCO4)CC2)CC1)c1ccc2c(c1)OCO2 [Example 79]", "nM", 809],
  ["O=C(Cc1ccc2c(c1)OCO2)N[C@H]1CC[C@H](CCN2CCC(c3cccc4c3CCO4)CC2)CC1 [Example 94]", "nM", 721],
  ["O=C(N[C@H]1CC[C@H](CCN2CCC(c3cccc4c3CCO4)CC2)CC1)c1ccc2ncccc2c1 [Example 78]", "nM", 3250],
  ["O=C(N[C@H]1CC[C@H](CCN2CCC(c3cccc4c3CCO4)CC2)CC1)C1(O)CCC1 [Example 39]", "nM", 306],
  ["CC(C)(C)C(=O)N[C@H]1CC[C@H](CCN2CCC(c3cccc4c3CCO4)CC2)CC1 [Example 58]", "nM", 378],
  ["O=C(CO)N[C@H]1CC[C@H](CCN2CCC(c3cccc4c3CCO4)CC2)CC1 [Example 20]", "nM", 571]
]}

---

// reported pKi for each item listed
target: human D2 receptor (Homo sapiens (Human), UniProt P14416); assay: Radioligand binding ([3H]-spiperone) to cloned receptors expressed in HEK-293 EBNA cells; conditions: HEK293 EBNA cell membranes expressing human D2
pKi: −log10 of the molar value.
measured-endpoint: pKi

{"columns": ["mol", "measured-endpoint", "measured"],
 "data": [
  ["O=C(N[C@H]1CC[C@H](CCN2CCC(c3cccc4c3CCO4)CC2)CC1)C1CCOCC1", "pKi", 6.14],
  ["O=C(N[C@H]1CC[C@H](CCN2CCC(c3cccc4c3CCO4)CC2)CC1)c1ccccc1", "pKi", 6.50],
  ["O=C(N[C@H]1CC[C@H](CCN2CCC(c3cccc4c3CCO4)CC2)CC1)c1ccc(Cl)cc1Cl", "pKi", 6.63],
  ["O=C(CCC(F)(F)F)N[C@H]1CC[C@H](CCN2CCC(c3cccc4c3CCO4)CC2)CC1", "pKi", 6.60],
  ["CS(=O)(=O)N[C@H]1CC[C@H](CCN2CCC(c3cccc4c3CCO4)CC2)CC1", "pKi", 6.48],
  ["CS(=O)(=O)c1ccc(C(=O)N[C@H]2CC[C@H](CCN3CCC(c4cccc5c4CCO5)CC3)CC2)s1", "pKi", 6.71],
  ["O=C(N[C@H]1CC[C@H](CCN2CCC(c3cccc4c3CCO4)CC2)CC1)C1CC1", "pKi", 6.82],
  ["CCS(=O)(=O)N[C@H]1CC[C@H](CCN2CCC(c3cccc4c3CCO4)CC2)CC1", "pKi", 6.48]
]}
